Hello, the source for this data is patent US20040192686A1, in case you need it.

# maps each entry to its melting point

{"smiles": "COc1cc2c(cc1C)nc(NCCN(C)C)n[n+]2[O-]", "melting point": "182 to 184 °C"}
{"smiles": "COCCc1nc2ccccc2[n+]([O-])n1", "melting point": "56 to 58 °C"}
{"smiles": "CCc1nc2ccc(OCCN3CCOCC3)cc2[n+]([O-])n1", "melting point": "99 to 101 °C"}
{"smiles": "COc1ccc2c(c1)nc(NCCN1CCCCC1)n[n+]2[O-]", "melting point": "133 to 135 °C"}
